tested on: DU-4475; test: normalised viability (% of control), CellTiter-Blue; higher = more viable cells (about 100 = DMSO control); conditions: incubation time: 72 h
outcome_measure: normalised viability (%)
The figure you give is taken to be in %; do not add the unit.

Consider the reported normalised viability for these compounds:
compound	study_target	unit_tag	normalised viability
NC1(c2ccc(-c3nc4ccn5c(=O)[nH]nc5c4cc3-c3ccccc3)cc2)CCC1 [MK-2206] (300 nM)	DU-4475	%	100
COc1cc2c(N3CCN(C(=O)Nc4ccc(OC(C)C)cc4)CC3)ncnc2cc1OCCCN1CCCCC1 [Tandutinib] (300 nM)	DU-4475	%	109

Tell me the measured normalised viability of O=C(c1cc(Cc2n[nH]c(=O)c3ccccc23)ccc1F)N1CCN(C(=O)C2CC2)CC1 [Olaparib] (3000 nM) , please.
72.4

Tell me the measured normalised viability of C[C@@H]1C[C@H]2[C@@H]3CCC4=CC(=O)C=C[C@]4(C)[C@@]3(F)[C@@H](O)C[C@]2(C)[C@@]1(O)C(=O)CO [Dexamethasone] (3000 nM) , please.
100

Tell me the measured normalised viability of NC(=O)NO [Hydroxyurea] (30000 nM) , please.
104

Tell me the measured normalised viability of CCN(CC)CCOc1ccc(C(=C(Cl)c2ccccc2)c2ccccc2)cc1 [Clomifene] (3000 nM) , please.
92.4

Tell me the measured normalised viability of N[C@@H](Cc1ccc(N(CCCl)CCCl)cc1)C(=O)O [Melphalan] (297 nM) , please.
88.9

---

Form field: EC50, CellTiter-Glo (one value per entry).
test system: SK-BR-3; settings: 72 h
The figure you give is taken to be in nM; do not add the unit.

What reported EC50, CellTiter-Glo corresponds to CCN(CC)CCOc1ccc(C(=C(Cl)c2ccccc2)c2ccccc2)cc1 on SK-BR-3?
6000

What reported EC50, CellTiter-Glo corresponds to Nc1nc(Cl)nc2c1ncn2[C@@H]1O[C@H](CO)[C@@H](O)[C@@H]1F on SK-BR-3?
201

---

Form field: normalised viability (one value per entry).
tested on: HDQ-P1; test: normalised viability (% of control), CellTiter-Blue; higher = more viable cells (about 100 = DMSO control); conditions: incubation time: 72 h
The figure you give is taken to be in %; do not add the unit.

Consider the reported normalised viability for these compounds:
compound	study_target	normalised viability [%]
CO[C@H]1C[C@@H]2CC[C@@H](C)[C@@](O)(O2)C(=O)C(=O)N2CCCC[C@H]2C(=O)O[C@H]([C@H](C)C[C@@H]2CC[C@@H](O)[C@H](OC)C2)CC(=O)[C@H](C)/C=C(\C)[C@@H](O)[C@@H](OC)C(=O)[C@H](C)C[C@H](C)/C=C/C=C/C=C/1C [Sirolimus] (1000 nM)	HDQ-P1	70.3
CCN(CC)CCOc1ccc(C(=C(Cl)c2ccccc2)c2ccccc2)cc1 [Clomifene] (10000 nM)	HDQ-P1	38.8

Tell me the measured normalised viability of CN1CCN(c2nc(C3=C(c4c[nH]c5ccccc45)C(=O)NC3=O)c3ccccc3n2)CC1 [Sotrastaurin] (10000 nM) , please.
124

---

Form field: normalised response (one value per entry).
tested on: MDA-MB-453; assay: normalised response (% of control), CellTiter-Glo; higher = more viable cells (100 = DMSO, 0 = benzethonium chloride kill control); conditions: incubation time: 72 h
The figure you give is taken to be in %; do not add the unit.

Consider the reported normalised response for these molecules:
molecule	unit_tag	normalised response
NC1(c2ccc(-c3nc4ccn5c(=O)[nH]nc5c4cc3-c3ccccc3)cc2)CCC1 [MK-2206] (10 nM)	%	88.5
CC/C(=C(\c1ccccc1)c1ccc(OCCN(C)C)cc1)c1ccccc1 [Tamoxifen] (100 nM)	%	102
CC(C)NC[C@@H](C(=O)N1CCN(c2ncnc3c2[C@H](C)C[C@H]3O)CC1)c1ccc(Cl)cc1 [GDC-0068] (100 nM)	%	84.2

Tell me the measured normalised response of NC(=O)NO [Hydroxyurea] (1000 nM) , please.
109

Tell me the measured normalised response of COc1cc2c(Oc3ccc(NC(=O)C4(C(=O)Nc5ccc(F)cc5)CC4)cc3F)ccnc2cc1OCCCN1CCOCC1 [Foretinib] (10 nM) , please.
107

Tell me the measured normalised response of CO[C@H](C(=O)[C@@H](O)[C@@H](C)O)[C@@H]1Cc2cc3cc(O[C@H]4C[C@@H](O[C@@H]5C[C@@H](O)[C@H](O)[C@@H](C)O5)[C@H](O)[C@@H](C)O4)c(C)c(O)c3c(O)c2C(=O)[C@H]1O[C@H]1C[C@@H](O[C@@H]2C[C@@H](O)[C@@H](O[C@@H]3C[C@](C)(O)[C@H](O)[C@@H](C)O3)[C@@H](C)O2)[C@H](O)[C@@H](C)O1 [Plicamycin] (100 nM) , please.
114

Tell me the measured normalised response of CCc1cnn2c(NCc3ccc[n+]([O-])c3)cc(N3CCCC[C@H]3CCO)nc12 [Dinaciclib] (10 nM) , please.
94.8

Tell me the measured normalised response of Cn1cc(C[C@@H](N)C(=O)O)c2ccccc21 [1-methyl-D-tryptophan] (50 nM) , please.
96

Tell me the measured normalised response of O=C(O)CC[C@H]1CC[C@@](c2cc(F)ccc2F)(S(=O)(=O)c2ccc(Cl)cc2)CC1 [MK-0752] (10 nM) , please.
114
